# MEASURED ON: Xanthine oxidase from bovine milk (Bos taurus)
# Sequence (P80457 whole entry): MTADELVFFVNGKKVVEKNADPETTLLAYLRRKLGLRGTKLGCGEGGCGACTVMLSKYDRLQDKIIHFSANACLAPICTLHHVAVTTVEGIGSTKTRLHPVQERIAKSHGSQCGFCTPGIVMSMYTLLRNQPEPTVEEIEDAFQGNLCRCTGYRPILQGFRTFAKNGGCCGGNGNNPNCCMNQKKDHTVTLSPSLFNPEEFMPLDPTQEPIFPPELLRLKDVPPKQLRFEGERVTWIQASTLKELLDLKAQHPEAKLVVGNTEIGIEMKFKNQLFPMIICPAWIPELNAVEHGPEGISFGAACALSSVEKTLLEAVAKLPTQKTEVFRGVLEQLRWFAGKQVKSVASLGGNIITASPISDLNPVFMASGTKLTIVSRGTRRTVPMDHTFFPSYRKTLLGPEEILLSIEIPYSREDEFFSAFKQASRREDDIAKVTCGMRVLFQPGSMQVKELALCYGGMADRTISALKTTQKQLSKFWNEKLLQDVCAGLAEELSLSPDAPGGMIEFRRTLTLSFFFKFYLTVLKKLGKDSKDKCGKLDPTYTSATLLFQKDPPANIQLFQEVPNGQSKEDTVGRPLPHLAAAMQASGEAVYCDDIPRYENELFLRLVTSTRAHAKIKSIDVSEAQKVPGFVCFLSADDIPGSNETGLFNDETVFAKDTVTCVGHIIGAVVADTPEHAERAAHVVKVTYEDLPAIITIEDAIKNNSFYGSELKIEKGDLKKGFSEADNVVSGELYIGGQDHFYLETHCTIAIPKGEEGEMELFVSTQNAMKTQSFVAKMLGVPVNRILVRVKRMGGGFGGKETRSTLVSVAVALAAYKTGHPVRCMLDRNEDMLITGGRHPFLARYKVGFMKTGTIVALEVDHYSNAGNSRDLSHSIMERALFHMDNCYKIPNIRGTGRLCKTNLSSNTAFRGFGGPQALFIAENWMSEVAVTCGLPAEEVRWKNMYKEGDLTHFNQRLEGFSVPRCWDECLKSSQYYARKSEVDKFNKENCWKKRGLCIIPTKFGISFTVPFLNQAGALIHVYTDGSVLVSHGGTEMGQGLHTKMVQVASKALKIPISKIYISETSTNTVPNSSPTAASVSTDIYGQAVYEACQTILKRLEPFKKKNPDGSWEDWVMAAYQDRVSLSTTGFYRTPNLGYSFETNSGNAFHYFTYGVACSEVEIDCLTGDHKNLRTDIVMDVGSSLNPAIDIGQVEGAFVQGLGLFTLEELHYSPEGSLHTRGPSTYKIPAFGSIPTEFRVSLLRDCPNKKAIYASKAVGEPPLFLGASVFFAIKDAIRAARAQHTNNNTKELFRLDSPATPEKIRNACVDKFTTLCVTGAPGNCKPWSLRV
# RUN PARAMETERS: each compound at 20 μM (FIG. 2)
TEST READOUT: inhibition of XO

Reference set (7 entries):
INSERT INTO assay_data (compound, measured_on, experimental_result) VALUES
  ('O.O=Cc1cc(O)c(O)c(O)c1 [THB-CHO, 3,4,5-trihydroxybenzaldehyde hydrate]', 'Xanthine oxidase from bovine milk (Bos taurus)', 'inhibitory effects on XO'),
  ('O=Cc1ccc(O)c(O)c1 [DHB-CHO, 3,4-dihydroxybenzaldehyde]', 'Xanthine oxidase from bovine milk (Bos taurus)', 'inhibitory effects on XO'),
  ('O=C(O)c1cc(O)c(O)c(O)c1 [gallic acid, reference compound]', 'Xanthine oxidase from bovine milk (Bos taurus)', 'no effect on XO'),
  ('COc1ccc(CO)cc1OC [DMB-CH2OH, 3,4-dimethoxybenzyl alcohol, reference compound]', 'Xanthine oxidase from bovine milk (Bos taurus)', 'no effect on XO'),
  ('O=C(O)c1ccc(O)c(O)c1 [DHB-COOH, 3,4-dihydroxybenzoic acid, reference compound]', 'Xanthine oxidase from bovine milk (Bos taurus)', 'no effect on XO'),
  ('O=C(O)/C=C/c1ccc(O)c(O)c1 [caffeic acid, reference compound]', 'Xanthine oxidase from bovine milk (Bos taurus)', 'no effect on XO'),
  ('O=Cc1cc(O)c(O)c([N+](=O)[O-])c1 [DHNB, 3,4-Dihydroxy-5-nitrobenzaldehyde]', 'Xanthine oxidase from bovine milk (Bos taurus)', 'inhibitory effects on XO');

The record that follows has no inhibition of XO shown yet.
Q: Identify the measured inhibition of XO of O=Cc1cc(O)c(O)cc1[N+](=O)[O-] [DH6NB, 3,4-Dihydroxy-6-nitrobenzaldehyde] for Xanthine oxidase from bovine milk (Bos taurus).
Result: inhibitory effects on XO

Cited source: patent US9622988B2
